Recorded log10 TGI values for a group of compounds are listed next.
test system: HCC-2998 colon; experiment: NCI tumour cell line growth inhibition, 48 h
Scale type: logarithmic (base 10). Underlying TGI unit: µM.

These solved cases illustrate the format of a correct answer.
**Q:** Consider the compound CC(=O)N[C@@H]1CCC[C@H](C(=O)Nc2cc(-c3cnn4c3CC(C)(C)C4)c(Cl)cn2)C1 and give its measured log10 TGI.
**A:** -0.63

**Q:** Consider the compound CCOC(=O)C(Cc1c(-c2[nH]c3ccccc3c2CC(NC(=O)CNC(C)=O)C(=O)OCC)[nH]c2ccccc12)NC(=O)CNC(C)=O (centres undefined) and give its measured log10 TGI.
**A:** 1.68

***
**Q:** Consider the compound BrCC[P+](c1ccccc1)(c1ccccc1)c1ccccc1 and give its measured log10 TGI.
**A:** 1.43

**Q:** Consider the compound CSC1(SC)CCCCCCCCCCC1 and give its measured log10 TGI.
**A:** 1.61

**Q:** Consider the compound Cc1csc(Nc2nc(-c3cccc(Cl)c3)nc(C(Cl)(Cl)Cl)n2)n1 and give its measured log10 TGI.
**A:** 0.67

**Q:** Consider the compound O=C(O)c1ccc(Nc2cnc3ccc(C(F)(F)F)cc3n2)cc1 and give its measured log10 TGI.
**A:** 1.29

Values compiled from PubChem BioAssay (NCI).
